Tested on: NCI-H460
Protocol details: NCI tumour cell line growth inhibition, 48 h
Active and inactive are the calls of the source. Cut-off read from the data, not from the text of the source: active = GI50 up to about 1.1 µM and inactive = higher.
Bench note: report the call from active, inactive

# example entries with known answers
| Molecule | Category label |
| --- | --- |
| CC(C)(C)c1ccc(S(=O)(=O)N2C(c3cccc(C4CC[C@@H](C(=O)O)N4S(=O)(=O)c4ccc(C(C)(C)C)cc4)c3)CC[C@H]2C(=O)O)cc1 (some centres not stated) | inactive |
| NNc1nncn1N | inactive |
| CN(/N=N/c1[nH]cnc1C(N)=O)C1CCCCC1 | inactive |
| CN(CCc1ccc(Br)cc1)CCN1CCCCC1 | inactive |
| CC(=O)Oc1ccccc1 | inactive |
| Cc1cc(C)c(-c2noc(-c3ccc(Cl)cc3)c2C2=NCCN2)c(C)c1 | inactive |
| C=C(C)[C@@]12C[C@H](OC(=O)[C@H](O)[C@@H](NC(=O)c3ccccc3)c3ccccc3)C(C)=C1[C@@H](OC(C)=O)C(=O)[C@@]1(C)C([C@@H]2OC(=O)c2cc(F)cc(F)c2)C2(OC(C)=O)CO[C@@H]2C[C@@H]1O (some centres not stated) | active |
| C=CC1(c2ccc(OC)cc2)OCCCO1 | inactive |

Problem: State the result this test recorded for O=C(N/N=C(\C1=Nc2ccc(Cl)cc2NC1O)C(O)/C=C/c1ccccc1)c1ccncc1 (configuration not stated) .
Result: inactive

Problem: Per the assay record, what outcome was assigned to COc1cc2c(cc1OC)C1C3CCCCC3CCN1CC2 (configuration not stated) ?
Result: inactive

Problem: // outcome(item) with item = "CCC1=C(C)/C(=C/c2[nH]c(CBr)c(CC)c2C)N=C1CBr"
Result: inactive

Problem: I would be grateful if you could indicate the recorded call for "C/C=C/CC(S(=O)(=O)c1ccccc1)S(=O)(=O)c1ccccc1" .
Result: inactive

* * *

System: HL-60
Protocol details: NCI tumour cell line growth inhibition, 48 h
Active and inactive are the calls of the source. Cut-off read from the data, not from the text of the source: active = GI50 up to about 1.1 µM and inactive = higher.
Permitted responses: active, inactive

| Compound | Category label |
| --- | --- |
| O=C1O[C@H]2[C@@H]3OC(=O)c4cc(O)c(O)c(O)c4-c4c(cc(O)c(O)c4O)C(=O)OC[C@H]2O[C@@H](OC(=O)c2cc(O)c(O)c(O)c2)[C@@H]3OC(=O)c2cc(O)c(O)c3c2[C@@H]2C1=CC(=O)C(O)(O)C2(O)O3 (some centres undefined) | inactive |
| Nc1c(C(=O)c2ccccc2)[nH]c(NCc2ccccc2)c1C(=S)Nc1ccccc1 | inactive |
| CC/C(C)=C1\CCC(CN2CCOCC2)C1=O (centres undefined) | inactive |
| C=C(Cl)[C@@](Cl)(CBr)CC[C@@H](Br)C(C)(C)Cl | active |
| CCC/C(Cl)=N\OC(=O)Nc1ccc(OC(F)(F)F)cc1 | inactive |

Problem: Could you please tell me the result logged for "COc1cc(-c2nc(SC)nc3c2CCc2ccccc2-3)cc(OC)c1OC" in this assay?
Result: inactive

Problem: I would be grateful if you could indicate the recorded call for "CC(=O)NC1=C(Sc2ccc(Cl)cc2)C(=O)c2ccccc2C1=O" .
Result: active

Problem: I'd appreciate the recorded outcome for "COc1cc(C[S+]2CCCC2)c(SC)cc1C[S+]1CCCC1" from this test.
Result: inactive

Problem: Entry "NC(=O)N/N=C/C(=C/Nc1ccccc1)[N+](=O)[O-]" : call = ?
Result: inactive

Problem: So what was the verdict on Cc1cc(Cl)ccc1NC(=O)CC1SC(Nc2ccccc2Cl)=NC1=O (centres undefined) in this test?
Result: inactive

Problem: For this compound, state the assay outcome: "CN(C)c1cccc(OC(=O)NCCCl)c1"
Result: inactive

Problem: State the result this test recorded for "CC1=NN2C(c3ccc([N+](=O)[O-])cc3)=CSC2=NC(C)(C)C1" .
Result: inactive

* * *

Test system: A549
Protocol details: NCI tumour cell line growth inhibition, 48 h
Activity calls are given as the source filed them. Cut-off read from the data, not from the text of the source: active = GI50 up to about 1.1 µM and inactive = higher.
Respond only with the outcome that fits, drawn from active, inactive

| Molecule | Category label |
| --- | --- |
| CC(=O)O[C@H]1CC[C@@]2(C)C(=CC[C@@H]3[C@@H]2CC[C@]2(C)C(=N/O)/C(=C/c4ccc([N+](=O)[O-])cc4)C[C@@H]32)C1 | inactive |
| CC1=NN(c2ccccc2)C2(C1)C(Cl)C(=O)N2c1nc2ccccc2s1 (configuration not stated) | inactive |
| Nc1cc2nc(-c3ccccc3)cn2cn1 | inactive |
| OCCOc1ccc(-c2cc(-c3ccccn3)nc(-c3ccccn3)c2)cc1 | active |

Problem: Fill in: this test's call for "Cc1nc2c(=O)n(C)c(=O)nc-2n(-c2ccc(Cl)cc2)c1C" is ___
Result: inactive

Problem: # outcome recorded in this test, key = "COC(=O)N/N=C(\C)c1sc(-c2nc(C)c(/C(C)=N/NC(=O)OC)s2)nc1C"
Result: inactive

Problem: Record lookup: outcome of this test for "N#Cc1c(/C=C/c2ccccc2)c2c([nH]c1=S)CCCCC2" ?
Result: inactive

Problem: Recorded call for COc1ccc(OC2OC(CO)C(OCc3ccccc3)C(OCc3ccccc3)C2OCc2ccccc2)cc1 (configuration not stated) ?
Result: inactive

Problem: I would be grateful if you could indicate the recorded call for "CC12O[Te]34OC1(C)C(C)(O3)C2(C)O4" .
Result: inactive

Problem: Short answer needed: outcome of this test for "O=C(O)COc1c(Cl)cc(Cl)c2cccnc12" ?
Result: inactive

Problem: In this assay, the call recorded for "COc1ccc(S(=O)(=O)N[C@H](C(=O)O)c2ccccc2)cc1" was what?
Result: inactive

Problem: Dear all, I need the recorded test outcome for "Nc1c(C(=O)c2ccccc2)[nH]c(NCc2ccccc2)c1C(=S)Nc1ccccc1" , thank you.
Result: inactive

* * *

Tested on: U-251
Protocol details: NCI tumour cell line growth inhibition, 48 h
Activity calls are given as the source filed them. Cut-off read from the data, not from the text of the source: active = GI50 up to about 1.1 µM and inactive = higher.
Measured parameter: GI50

Kindly note: U-251, N#CNCC(COCc1ccccc1)c1ccccc1 (stereo not given) , GI50 value reported: > 100 µM (inactive)

The compound COc1ccc(C23c4ccc(OC)cc4CC2(c2ccc([N+](=O)[O-])cc2)Cc2cc(OC)ccc23)cc1 (stereo not given) on U-251: GI50 was > 50.1 µM (inactive)

U-251 assay, compound COc1ccc(/C=C2\N=C(N3CCCC(CO)C3)NC2=O)cc1 (stereo not given) , recorded GI50 = > 100 µM (inactive)

* * *

Test system: MDA-MB-231
Protocol details: NCI tumour cell line growth inhibition, 48 h
Activity calls are given as the source filed them. Cut-off read from the data, not from the text of the source: active = GI50 up to about 1.1 µM and inactive = higher.
Measured parameter: GI50

| Molecule | GI50 |
| --- | --- |
| Oc1ccc(O)c(Sc2nnc(CCCCCCCCc3nnc(Sc4cc(O)ccc4O)o3)o2)c1 | > 100 µM (inactive) |
| O=C(c1ccccc1)c1c2ccccn2c2cccc[n+]12 | > 100 µM (inactive) |

Note to self: GI50 recorded for "N#Cc1nn(C(N)=O)c(N)c1C#N" was > 100 µM (inactive)

Measured GI50 of CCN(CC)CC(O)CNc1ccc(NCC(O)CCl)c2c1C(=O)c1ccccc1C2=O (stereo unspecified) : 11.1 µM (inactive)

For reference, reported GI50 for "O=C(O)COc1c(Cl)cc(Cl)c(C(c2c(Cl)cc(Cl)c(OCC(=O)O)c2Cl)C(Cl)(Cl)Cl)c1Cl" stands at 24.9 µM (inactive)

The value of GI50 measured for the molecule "CC1(C)CC(=O)c2c(nc3c(ccc4ccccc43)c2-c2ccc(NC(=O)CCC(=O)Nc3ccc(-c4c5c(nc6c4ccc4ccccc46)CC(C)(C)CC5=O)cc3)cc2)C1" turned out to be > 100 µM (inactive)

Sure, the documented GI50 for COc1ccc2c3c1OC1C34CCN(C)C(C2)C4=CC(I)C1(OC)OC (stereo unspecified) is 18.5 µM (inactive)

# GI50 (molecule: "N#Cc1c(-c2ccccc2)cc(-c2ccc(Cl)cc2)[nH]c1=S" ) is 23.4 µM (inactive)

* * *

Tested on: LOX IMVI
Protocol details: NCI tumour cell line growth inhibition, 48 h
Calls of active or inactive are those of the source. Rule as the data show it: active = GI50 up to about 1.1 µM and inactive = higher. Square brackets hold non-standard residues; d marks the D form. Peptide text beside a SMILES is read from it.
Mark one answer only. Choices: active, inactive

Problem: Record request — test call for "CC1=Cc2ccc(C)cc2C(=O)C1=O"
Result: inactive

Problem: Which result was noted for this compound in the test: COc1nc(NC2OC(COC(C)=O)C(OC(C)=O)C(OC(C)=O)C2OC(C)=O)c2c(OC(C)=O)cc(=O)oc2n1 (stereo unspecified)
Result: inactive

Problem: Which result was noted for this compound in the test: "C/C(=N\NC(N)=S)c1ccc2c(c1)Sc1ccccc1O2"
Result: inactive

Problem: I'd appreciate the recorded outcome for "Cc1ccc(S(=O)(=O)NCCCN(CCCNS(=O)(=O)c2ccc(C)cc2)S(=O)(=O)c2ccc(C)cc2)cc1" from this test.
Result: inactive

Problem: Hello, I am checking results. What call was entered for Cc1ccc2c(c1)-c1c3c(nn1-c1ccccc1)-c1ccccc1SC3O2 (stereo unspecified) ?
Result: inactive

Problem: Please share the test call associated with "CCC1=C(C)/C(=C/c2[nH]c(CBr)c(CC)c2C)N=C1CBr" .
Result: inactive

Problem: Check the results log: what was the call for "CCC/C(=N\NC(=S)N1CC2CCC(CC2)C1)c1ccccn1" ?
Result: active

Problem: Could you check what this test reported for "O=c1ccn(CC2(CO)CCCC2)c(=O)[nH]1" ?
Result: inactive

Problem: For "O=C(/C=C/c1ccccc1F)c1ccc([N+](=O)[O-])cc1" , which call appears in the assay record?
Result: inactive

Problem: Short answer needed: outcome of this test for "N#Cc1c(/C=C/c2ccccc2)c2c([nH]c1=S)CCCCC2" ?
Result: inactive

Problem: I'd appreciate the recorded outcome for [N-]=[N+]=CC(=O)C1CCCN1C(=O)c1ccccc1 (stereo unspecified) from this test.
Result: inactive

Problem: Test call for this compound, please: "Sc1nnc(Cc2ccc(Cl)cc2)[nH]1"
Result: inactive

Problem: Tell me the assay call for C=C1NC(=O)C(CC(C(=O)C(=O)Nc2c(C)cccc2C(C)(C)C)C(=O)c2ccc3ccccc3c2)C(=O)N1 (stereo unspecified) please.
Result: inactive

Problem: Status in this test for CC(C)C[C@H](NC(=O)[C@H](CC(C)C)NC(=O)[C@@H](Cc1c[nH]c2ccccc12)NC(=O)[C@H](Cc1ccccc1)NC(=O)[C@@H](Cc1c[nH]c2ccccc12)NC(=O)[C@H](CCC(N)=O)NC(=O)[C@@H](CCC(N)=O)NC(=O)[C@@H]1CCCN1C(=O)[C@@H](CCCCN)NC(=O)[C@H]1CCCN1C(=O)[C@H](N)CCCN=C(N)N)C(N)=O (H-[dR][dP][dK]P[dQ]Q[dW]F[dW]LL-NH2) ?
Result: inactive

Problem: GET /call?item= "Cc1cc(-c2nc3ccccc3s2)ccc1NC(=O)[C@H](C)N" returns the recorded outcome of this test.
Result: inactive

Problem: What outcome does the record of this test show for "Cc1sc2c(c1C)C(=O)c1cccn1-2" ?
Result: inactive

Problem: What is the recorded call for this compound in the test? "CC(=O)NNC(=S)N/C=C1/C(=O)Oc2ccccc2C1=O"
Result: inactive

Problem: I would be grateful if you could indicate the recorded call for "CCc1ccccc1NC(=O)C1=C(C)NC(C)=C(C(=O)Nc2ccccc2CC)C1c1ccccc1Cl" .
Result: inactive

// data source = ChEMBL document CHEMBL1201862
